Reference source for all entries: patent US20070117743A1

Attribute: TGI HELA
System: HeLa
EXPERIMENTAL_PROTOCOL: SRB colorimetric assay of cell growth and viability, HeLa
Assay type: cell-based, human
CONDITION: HELA; 48 hours exposure
Protocol: The finality of this assay is to interrupt the growth of a “in vitro” tumor cell culture by means a continued exhibition of the cells to the sample to be testing. […] Cells are seeded in 96 well microtiter plates, at 5×10^3 cells per well in aliquots of 195 μL medium, and they are allowed to attach to the plate surface by growing in drug free medium for 18 hours. […] Optical densities are read on a automated spectrophotometric plate reader at a single wavelength of 490 nm. […]
Where a SMILES comes first, the peptide text is derived from it. Bridges are numbered along the chain shown (N, C = ends). [ ]: non-standard residue; d: D form. The star is where a group is joined. d(aIle) = CC[C@H](C)[C@@H](N)C(=O)O; d(aThr) = C[C@@H](O)[C@@H](N)C(=O)O; Hexanoyl(5-Me) = CC(C)CCCC(=O)*; Phg = N[C@H](C(=O)O)c1ccccc1; Orn = NCCC[C@H](N)C(=O)O; Dhb = C/C=C(\N)C(=O)O
I only need the number, in Molar, no unit after it.

// below: answered compounds
C/C=C1\NC(=O)[C@H](c2ccccc2)NC(=O)[C@@H](C(C)C)NC(=O)[C@@H]([C@@H](C)CC)NC(=O)[C@H](NC(=O)[C@H](NC(=O)[C@H](CCCN)NC(=O)[C@H]2CCCN2C(=O)[C@H](NC(=O)[C@@H](NC(=O)[C@@H](NC(=O)[C@H](NC(=O)CCCC(C)C)C(C)C)[C@@H](C)O)C(C)C)C(C)C)[C@@H](C)CC)[C@@H](C)OC(=O)[C@H](C(C)C)NC1=O [Compound 87, [Phg^3]-KF] ({Hexanoyl(5-Me)}-[dV]TV[dV][dP][Orn][d(aIle)][d(aThr)][d(aIle)][dV][Phg][Dhb]V; ester 8-C) : 1.90E−06
C/C=C1\NC(=O)[C@H](Cc2ccccc2)NC(=O)[C@@H](C(C)C)NC(=O)[C@@H]([C@@H](C)CC)NC(=O)[C@H](NC(=O)[C@H](NC(=O)[C@H](CCCN)NC(=O)[C@H]2CCCN2C(=O)[C@H](NC(=O)[C@@H](NC(=O)[C@H](C)NC(=O)[C@H](NC(=O)CCCC(C)C)C(C)C)C(C)C)C(C)C)[C@@H](C)CC)[C@@H](C)OC(=O)[C@H](C(C)C)NC1=O [Compound 112, [Ala^12]-KF] ({Hexanoyl(5-Me)}-[dV]AV[dV][dP][Orn][d(aIle)][d(aThr)][d(aIle)][dV]F[Dhb]V; ester 8-C) : 2.41E−06

# input Tell me its TGI HELA on HeLa: C/C=C1\NC(=O)[C@H](Cc2ccccc2)NC(=O)[C@@H](C(C)C)NC(=O)[C@@H]([C@@H](C)CC)NC(=O)[C@H](NC(=O)[C@H](NC(=O)[C@H](CCCN)NC(=O)[C@@H]2CC[C@H](c3ccccc3)N2C(=O)[C@H](NC(=O)[C@@H](NC(=O)[C@@H](NC(=O)[C@H](NC(=O)CC[C@@H](C)CC)C(C)C)[C@@H](C)O)C(C)C)C(C)C)[C@@H](C)CC)[C@@H](C)OC(=O)[C@H](C(C)C)NC1=O [Compound 62, [(5R)-Ph-Pro^9, (4S)-MeHex^14]-KF]
# output 6.43E−06
